The reported numbers originate from patent US20180078516A1.

# Assay notes: clinical
# Condition notes: human, in vivo, po, 400 mg
Test readout: Tmax

Query: Check the records and state Tmax for CC(C)Cc1ccc(C(C)C(=O)O)cc1 (racemic) [ibuprofen sodium dihydrate]
Reply: ~35 min
